compounds and their reported IC50
Molecular target: Mitogen-activated protein kinase kinase kinase 6 (Homo sapiens, UniProt O95382)
Sequence (O95382 whole entry): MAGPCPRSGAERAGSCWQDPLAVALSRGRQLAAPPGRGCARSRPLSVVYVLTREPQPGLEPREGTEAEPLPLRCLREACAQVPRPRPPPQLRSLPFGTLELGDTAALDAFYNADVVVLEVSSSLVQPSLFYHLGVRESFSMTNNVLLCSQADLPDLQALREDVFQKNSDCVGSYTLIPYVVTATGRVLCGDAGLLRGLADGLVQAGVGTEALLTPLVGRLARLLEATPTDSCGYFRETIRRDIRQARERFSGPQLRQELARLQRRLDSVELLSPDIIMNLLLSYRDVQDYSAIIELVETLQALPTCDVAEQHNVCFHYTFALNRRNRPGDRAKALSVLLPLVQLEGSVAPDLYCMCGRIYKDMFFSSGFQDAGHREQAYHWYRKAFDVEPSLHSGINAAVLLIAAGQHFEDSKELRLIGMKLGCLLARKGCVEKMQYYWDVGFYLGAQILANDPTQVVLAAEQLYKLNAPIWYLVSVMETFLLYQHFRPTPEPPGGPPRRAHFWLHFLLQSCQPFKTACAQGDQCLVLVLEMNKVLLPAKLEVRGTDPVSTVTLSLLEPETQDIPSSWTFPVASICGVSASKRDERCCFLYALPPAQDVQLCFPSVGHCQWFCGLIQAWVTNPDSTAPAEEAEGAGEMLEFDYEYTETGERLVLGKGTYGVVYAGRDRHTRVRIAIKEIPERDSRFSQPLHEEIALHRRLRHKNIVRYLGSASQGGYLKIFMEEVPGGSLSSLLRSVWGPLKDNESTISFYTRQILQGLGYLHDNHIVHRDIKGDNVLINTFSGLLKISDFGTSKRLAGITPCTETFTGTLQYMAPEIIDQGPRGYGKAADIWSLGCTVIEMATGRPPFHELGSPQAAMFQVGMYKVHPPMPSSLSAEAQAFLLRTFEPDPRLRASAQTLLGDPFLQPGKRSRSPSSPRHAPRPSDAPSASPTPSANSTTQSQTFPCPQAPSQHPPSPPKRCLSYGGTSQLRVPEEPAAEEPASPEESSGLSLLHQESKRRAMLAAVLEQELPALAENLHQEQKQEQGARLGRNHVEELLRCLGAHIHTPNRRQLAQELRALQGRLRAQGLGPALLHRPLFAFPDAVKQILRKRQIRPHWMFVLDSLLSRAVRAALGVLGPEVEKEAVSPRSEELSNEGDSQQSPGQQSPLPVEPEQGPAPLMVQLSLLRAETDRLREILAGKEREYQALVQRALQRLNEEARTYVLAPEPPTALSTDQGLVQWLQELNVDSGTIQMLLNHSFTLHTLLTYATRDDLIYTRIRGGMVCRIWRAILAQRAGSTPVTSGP
Experiment: Inhibition of ASK2 (unknown origin)
Response body: numeric value in nM, unit text excluded.

Consider the reported IC50 for these compounds:
TEST SMILES | TARGET OR SYSTEM | IC50, nM
CC(C)n1cnnc1-c1cccc(NC(=O)Nc2ccccn2)n1 | Mitogen-activated protein kinase kinase kinase 6 (Homo sapiens, UniProt O95382) | 1090
CC(C)n1cnnc1-c1cccc(NC(=O)Nc2ncc3[nH]cnc3n2)n1 | Mitogen-activated protein kinase kinase kinase 6 (Homo sapiens, UniProt O95382) | 742

Please supply the value of reported IC50 for the item "CC(C)n1cnnc1-c1cccc(NC(=O)Nc2ncnc3ccccc23)n1"
1480

meta.source: ChEMBL document CHEMBL4680251
